# credit: ChEMBL document CHEMBL1128091

- experiment description: Cmax value was evaluated in rats at a dose of 20 mg/kg
- Format: ADME, organism-based
- Parameters: dose 20 mg/kg
- applied conditions: rat, in vivo
value kind: Cmax (nM)
Numbers only, in nM.

Which Cmax value is on record for `CS(=O)(=O)O.Cc1c(O)cccc1C(=O)N[C@@H](CSc1ccccc1)[C@H](O)CN1C[C@H]2CCS[C@H]2C[C@H]1C(=O)NC(C)(C)C` ?
1400

* * *

- experiment description: Bioavailability was evaluated in rats at a dose of 20 mg/kg, under fasting state
- Assay type: ADME, organism-based
- applied conditions: rat, in vivo
value kind: bioavailability
Output should be the measured figure followed by the unit it is expressed in.

Form field: reported bioavailability of `CS(=O)(=O)O.Cc1c(O)cccc1C(=O)N[C@@H](CSc1ccccc1)[C@H](O)CN1C[C@H]2CCS[C@H]2C[C@H]1C(=O)NC(C)(C)C`
22%

* * *

- System: CEM-SS
- experiment description: Inhibitory concentration required for antiviral activity against HXB-2 infected CEM-SS cells
- Format: functional
- applied conditions: Homo sapiens
value kind: IC95
Report as: number unit

Check out these entries, answers already filled in.
Cc1c(O)cccc1C(=O)N[C@@H](Cc1ccccc1)[C@H](O)CN1C[C@H]2CCS[C@H]2C[C@H]1C(=O)NC(C)(C)C: 1360 nM
CC(C)(C)NC(=O)[C@@H]1C[C@@H]2CCCC[C@@H]2CN1C[C@@H](O)[C@H](Cc1ccccc1)NC(=O)[C@H](CC(N)=O)NC(=O)c1ccc2ccccc2n1: 21 nM
Cc1c(O)cccc1C(=O)N[C@@H](CSc1ccccc1)[C@H](O)CN1C[C@H]2CCS[C@H]2C[C@H]1C(=O)NC(C)(C)C: 18 nM

Would you kindly look at the next entry?
Please state recorded IC95 (tested on CEM-SS) of `Cc1c(O)cccc1C(=O)N[C@@H](Cc1ccccc1)[C@H](O)CN1C[C@H]2CCCC[C@H]2C[C@H]1C(=O)NC(C)(C)C`
135 nM

* * *

- system tested: Human immunodeficiency virus type 1 protease (Human immunodeficiency virus 1)
value kind: IC50 (nM)
Answers are plain numbers, in nM.

CC(C)(C)NC(=O)[C@@H]1C[C@@H]2SCC[C@@H]2CN1C[C@@H](O)[C@H](Cc1ccccc1)NC(=O)OCc1ccccc1: 6.6

List the reported IC50 of each compound below.
1. Cc1c(O)cccc1C(=O)N[C@@H](Cc1ccccc1)[C@H](O)CN1C[C@H]2CCS[C@H]2C[C@H]1C(=O)NC(C)(C)C
2. CC(C)(C)NC(=O)[C@@H]1C[C@@H]2CCCC[C@@H]2CN1C[C@@H](O)[C@H](Cc1ccccc1)NC(=O)OCc1ccccc1
3. Cc1c(O)cccc1C(=O)N[C@@H](Cc1ccccc1)[C@H](O)CN1C[C@H]2CCCC[C@H]2C[C@H]1C(=O)NC(C)(C)C
4. Cc1c(O)cccc1C(=O)N[C@@H](CSc1ccccc1)[C@H](O)CN1C[C@H]2CCS[C@H]2C[C@H]1C(=O)NC(C)(C)C

1. 0.5
2. 127
3. 13
4. 0.3

* * *

- Test system: Rattus norvegicus
- experiment description: Cmax value was evaluated in rats at a dose of 20 mg/kg
- Assay type: ADME, organism-based
- Set-up: dose 20 mg/kg
- applied conditions: in vivo
value kind: Cmax (nM)
One number for each entry, in nM.

Given the molecule `CS(=O)(=O)O.Cc1c(O)cccc1C(=O)N[C@@H](CSc1ccccc1)[C@H](O)CN1C[C@H]2CCS[C@H]2C[C@H]1C(=O)NC(C)(C)C` , what is its reported Cmax?
1000
